test: CCTE_Harrill_HTTr_Viability_PRF_DMEM_6hr: (Pilot) CCTE's 6-hour Cell Viability Assessment for the High-Throughput Transcriptomics (HTTr) Platform, in MCF-7 cells cultured phenol red-free DMEM + 10% charcoal-stripped fetal bovine serum, Harrill Lab (AID 2283976)
Calls of active or inactive are those of the source. The calls were made as follows: active = hit-call score of the fitted dose curve at least 0.9, where 1 is the maximum; inactive = score below 0.9.
Could you please pick one outcome from this set? active, inactive

N[C@@H](Cc1cc(I)c(Oc2ccc(O)c(I)c2)c(I)c1)C(=O)O: inactive

## Task What call does the record list for "Cc1nn(C)c(Oc2ccccc2)c1C=NOCc1ccc(C(=O)OC(C)(C)C)cc1" ?
## Result inactive

## Task What call does the record list for "CC(C)(c1ccc(O)cc1)c1ccc(O)cc1" ?
## Result inactive

## Task What call does the record list for "CC(C)CCCCCCc1ccc(O)cc1" ?
## Result active

====

read-out: CYP2C8 (gene 1558); assay: LTEA_HepaRG_CYP2C8: Life Technologies and Expression Analysis (LTEA) Assay for CYP2C8 using HepaRG (AID 2283483); settings: mRNA level, 48 h; actives raise or lower the signal
Active and inactive are the calls of the source. Rule for the calls: active = hit-call score of the fitted dose curve at least 0.9, where 1 is the maximum; inactive = score below 0.9.
Could you please pick one outcome from this set? active, inactive

Reference set (5 entries):
N#CSCSc1nc2ccccc2s1: inactive
O=C(c1ccc(O)cc1O)c1ccc(O)cc1O: inactive
c1ccc2[nH]c(-c3cscn3)nc2c1: inactive
COC(=O)c1ccc(I)cc1S(=O)(=O)NC(=O)Nc1nc(C)nc(OC)n1: inactive
CCNc1nc(N)nc(Cl)n1: inactive

## Task What call does the record list for "CCCCOCCOCCOCc1cc2c(cc1CCC)OCO2" ?
## Result active

====

system: frog Estrogen Receptor (ESR1), gene 398734; test: ATG_frER1_XSP1: Attagene TRANS-FACTORIAL Multi-Species (XSP1) HepG2 Assay for frog Estrogen Receptor (ESR1) (AID 2283777)
Records with an inconclusive call do not appear. Active and inactive are the calls of the source. Rule for the calls: active = hit-call score of the fitted dose curve at least 0.9, where 1 is the maximum; inconclusive = response in the unintended direction; inactive = score below 0.9.
Listing: AC50 of selected compounds

CC(C)CCCCCCc1ccc(O)cc1: 0.189 µM (active)
O=C(c1ccc(O)cc1O)c1ccc(O)cc1O: 0.544 µM (active)
CC(C)(c1ccc(O)cc1)c1ccc(O)cc1: 0.163 µM (active)

Attention now turns to another entry.
## Task State the recorded AC50 for this entry: CCCCC(CC)COC(=O)c1ccccc1C(=O)O (centres undefined)
## Result 13.6 µM (active)

====

target: human Peroxisome Proliferator-activated Receptor alpha (PPARa), PPARA (gene 5465) (UniProt Q07869); assay: NVS_NR_hPPARa: NovaScreen (NVS) Nuclear Receptor Binding Assay for human Peroxisome Proliferator-activated Receptor alpha (PPARa) (AID 2283359);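 also: activity means loss of TR-FRET signal versus DMSO baseline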
Sequence (Q07869 whole entry, looked up): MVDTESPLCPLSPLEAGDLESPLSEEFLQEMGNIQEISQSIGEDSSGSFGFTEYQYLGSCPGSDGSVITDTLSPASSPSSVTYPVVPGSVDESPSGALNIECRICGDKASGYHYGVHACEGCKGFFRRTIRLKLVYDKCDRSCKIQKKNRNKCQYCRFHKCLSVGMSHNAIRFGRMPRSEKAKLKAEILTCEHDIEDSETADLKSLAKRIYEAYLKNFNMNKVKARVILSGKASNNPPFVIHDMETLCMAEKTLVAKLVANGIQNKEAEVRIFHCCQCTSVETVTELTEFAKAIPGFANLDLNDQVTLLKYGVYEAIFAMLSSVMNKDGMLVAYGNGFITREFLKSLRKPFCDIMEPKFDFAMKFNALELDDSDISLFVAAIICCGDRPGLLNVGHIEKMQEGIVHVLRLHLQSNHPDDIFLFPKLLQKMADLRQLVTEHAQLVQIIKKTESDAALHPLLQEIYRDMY
Results filed as inconclusive are left out. Calls of active or inactive are those of the source. How the source made its calls: active means hit-call score of the fitted dose curve at least 0.9, where 1 is the maximum; inconclusive means response in the unintended direction; inactive means score below 0.9.
Value Kind: AC50

O=C(c1ccccc1)C1CCCCC1: inactive
CN(C)C(=O)Nc1ccc(Cl)c(Cl)c1: inactive
CCOC(=O)c1ccc(O)cc1: inactive
CC(C)(c1ccc(O)cc1)c1ccc(O)cc1: 105 nM (active)

====

read-out: Cytochrome P450 4A22 (Homo sapiens); assay: LTEA_HepaRG_CYP4A22: Life Technologies and Expression Analysis (LTEA) Assay for Cytochrome P450 4A22 (CYP4A22) using HepaRG (AID 2283495); conditions: mRNA level, 48 h; actives raise or lower the signal
Active and inactive are the calls of the source. The calls were made as follows: active = hit-call score of the fitted dose curve at least 0.9, where 1 is the maximum; inactive = score below 0.9.
Could you please pick one outcome from this set? active, inactive

## Task What call does the record list for CCCCOC(=O)C(C)Oc1ccc(Oc2ccc(C(F)(F)F)cn2)cc1 (configuration not stated) ?
## Result inactive

## Task What call does the record list for "CCCN(CCC)C(=O)SCC" ?
## Result inactive

## Task What call does the record list for "CCCOC(=O)NCCCN(C)C" ?
## Result inactive

## Task What call does the record list for "OB(O)O" ?
## Result inactive

## Task What call does the record list for "CCCCOC(=O)[C@@H](C)Oc1ccc(Oc2ccc(C(F)(F)F)cn2)cc1" ?
## Result inactive

## Task What call does the record list for "O=C(Nc1ccc([N+](=O)[O-])cc1Cl)c1cc(Cl)ccc1O" ?
## Result active

## Task What call does the record list for "Oc1ccc(C(c2ccc(O)cc2)C(Cl)(Cl)Cl)cc1" ?
## Result inactive

## Task What call does the record list for CCOC(=O)C(C)Oc1ccc(Oc2nc3ccc(Cl)cc3o2)cc1 (configuration not stated) ?
## Result inactive

## Task What call does the record list for "CCCN(CCC)c1c([N+](=O)[O-])cc(C(F)(F)F)c(N)c1[N+](=O)[O-]" ?
## Result active

## Task What call does the record list for "COC(=O)CSc1cc(N=c2sc(=O)n3n2CCCC3)c(F)cc1Cl" ?
## Result inactive

## Task What call does the record list for "CC(C)(c1ccc(O)cc1)c1ccc(O)cc1" ?
## Result inactive

## Task What call does the record list for "CCOC(=O)COc1cc(-n2ncc(C(F)(F)F)c(C)c2=O)c(F)cc1Cl" ?
## Result inactive
